system: SF-295 CNS; assay: NCI-60 one-dose screen, 48 h (100 = growth as untreated, 0 = no growth, -100 = all killed); conditions: 10 µM unless noted
About 83,000 compounds went through this panel and 20% of them were active in at least one assay; those are over-represented in the sample as a whole.
outcome-measure: growth (%)
Answers are plain numbers, in %.

Working through the 6 molecules below one at a time, give growth for each.
1. COc1ccc(CC(C)=C(c2ccc(OCCN3CCCC3)cc2)c2ccc(OCCN3CCCC3)cc2)cc1
2. COc1ccc2c(c1)c(-c1nc(N)nnc1-c1c[nH]c3ccccc13)cn2C
3. CCOC(=O)c1c(NC(=O)c2ccc(C(F)(F)F)cc2)sc2c(CN3CCN(C)CC3)c(O)ccc12
4. C#C[C@]1(O)CC[C@H]2[C@@H]3CC=C4c5sc(Nc6cc(Cl)ccc6OC)nc5CC[C@]4(C)[C@H]3CC[C@@]21C
5. NNc1nnc2nc(Nc3ccccc3)nc(Nc3ccc(S(N)(=O)=O)cc3)n12
6. O=C(NNc1nc2cc(F)cc(F)c2n2cccc12)c1cccnn1

-87.7
23.7
-58
-62.4
106
9.98

Give growth for all molecules that follow.
1. Clc1ccc(CSc2nnc(-c3ccc(Cl)cc3)n2-c2ccccc2)cc1
2. COc1ccc([C@@H]2C(=O)N(c3cc(OC)c(OC)c(OC)c3)[C@H]2c2ccc(OC)c(O)c2)cc1
3. O=c1nc(Nc2ccc([N+](=O)[O-])cc2O)sc2ccccc12

1. 78.4
2. 17.9
3. -34.2

Recorded values, source PubChem BioAssay (NCI).
